Test system: Absidia corymbifera NRRL 6251
Type: cell-based
Settings: NRRL 6251, 24 h
Bridge positions count the residues as written; N and C are the ends. Square brackets hold non-standard residues; d marks the D form. Peptide text beside a SMILES is read from it. Orn = NCCC[C@H](N)C(=O)O
For each of the compounds below, state its MIC against Absidia corymbifera NRRL 6251.
Answers are plain numbers, in µg/mL.

compound: CC[C@H](C)[C@H](NC(=O)[C@H](CCCCN)NC(=O)[C@H](CC(C)C)NC(=O)[C@H](CCCN)NC(=O)[C@H](CC(C)C)NC(=O)[C@H](CCCNC(=N)N)NC(=O)[C@H](C)NC(=O)[C@H](CCCNC(=N)N)NC(=O)[C@@H](NC(=O)[C@H](CCCN)NC(=O)[C@H](Cc1ccccc1)NC(=O)[C@H](CCCNC(=N)N)NC(=O)[C@H](C)NC(=O)[C@H](CCCCN)NC(=O)[C@@H](NC(=O)[C@H](CCCN)NC(=O)[C@@H](N)Cc1ccccc1)[C@@H](C)CC)C(C)C)C(N)=O [RP553] (H-F[Orn]IKARF[Orn]VRARL[Orn]LKI-NH2)
measured: 2

For each of the compounds below, state MIC against Absidia corymbifera NRRL 6251.
1. CSCC[C@@H]1NC(=O)[C@H](C(C)C)NC(=O)[C@H](C(C)C)NC(=O)[C@H](CC(C)C)NC(=O)[C@H](Cc2c[nH]c3ccccc23)NC(=O)[C@H](C(C)C)NC(=O)[C@@H](NC(=O)[C@H](Cc2c[nH]c3ccccc23)NC(=O)[C@@H](N)CCCNC(=N)N)CSSC[C@@H](C(=O)N[C@@H](CCCCN)C(=O)N[C@@H](CCCCN)C(N)=O)NC1=O [RP513] (H-RWCVWLVVMCKK-NH2; disulfide 3-10)
2. CC[C@H](C)[C@H](NC(=O)[C@H](CCCN)NC(=O)[C@H](C)NC(=O)[C@H](CCCN)NC(=O)[C@H](CC(C)C)NC(=O)[C@H](CCCCN)NC(=O)[C@@H](NC(=O)[C@H](CCCCN)NC(=O)[C@@H](NC(=O)[C@H](CCCN)NC(=O)[C@H](C)NC(=O)[C@H](CCCN)NC(=O)[C@H](CC(C)C)NC(=O)[C@H](CCCN)NC(=O)[C@@H](N)Cc1ccccc1)[C@@H](C)CC)C(C)C)C(=O)N[C@@H](CCCN)C(=O)N[C@@H](CC(C)C)C(N)=O [RP555] (H-F[Orn]L[Orn]A[Orn]IKVKL[Orn]A[Orn]I[Orn]L-NH2)

Result block:
32
4

----------
Test system: Candida parapsilosis Y-1763
Format: cell-based
Details: Y-1763, 24 h
Square brackets hold non-standard residues; d marks the D form. Peptide text beside a SMILES is read from it. Orn = NCCC[C@H](N)C(=O)O
measurement-kind: MIC against Candida parapsilosis Y-1763 (µg/mL)
One number for each entry, in µg/mL.

molecule: CC[C@H](C)[C@H](NC(=O)[C@H](CCCN)NC(=O)[C@H](C)NC(=O)[C@H](CCCN)NC(=O)[C@H](CC(C)C)NC(=O)[C@H](CCCN)NC(=O)[C@@H](NC(=O)[C@H](CCCN)NC(=O)[C@@H](NC(=O)[C@H](CCCN)NC(=O)[C@H](C)NC(=O)[C@H](CCCN)NC(=O)[C@H](CC(C)C)NC(=O)[C@H](CCCN)NC(=O)[C@@H](N)Cc1ccccc1)[C@@H](C)CC)C(C)C)C(=O)N[C@@H](CCCN)C(=O)N[C@@H](CC(C)C)C(N)=O [RP554] (H-F[Orn]L[Orn]A[Orn]I[Orn]V[Orn]L[Orn]A[Orn]I[Orn]L-NH2)
MIC against Candida parapsilosis Y-1763 [µg/mL]: 8

Query block: Can you share its MIC against Candida parapsilosis Y-1763? I mean this molecule: CC[C@H](C)[C@H](NC(=O)[C@H](CCCN)NC(=O)[C@H](C)NC(=O)[C@H](CCCN)NC(=O)[C@H](CC(C)C)NC(=O)[C@H](CCCCN)NC(=O)[C@@H](NC(=O)[C@H](CCCCN)NC(=O)[C@@H](NC(=O)[C@H](CCCN)NC(=O)[C@H](C)NC(=O)[C@H](CCCN)NC(=O)[C@H](CC(C)C)NC(=O)[C@H](CCCN)NC(=O)[C@@H](N)Cc1ccccc1)[C@@H](C)CC)C(C)C)C(=O)N[C@@H](CCCN)C(=O)N[C@@H](CC(C)C)C(N)=O [RP555] (H-F[Orn]L[Orn]A[Orn]IKVKL[Orn]A[Orn]I[Orn]L-NH2)
Result block: 16

Where these numbers come from: paper PMC7559897
